These measurements were taken from patent US9708334B2.

Biological target: GlyT1 (Homo sapiens)
Construct: expressed in transfected cells
Sequence (P48067 1-706): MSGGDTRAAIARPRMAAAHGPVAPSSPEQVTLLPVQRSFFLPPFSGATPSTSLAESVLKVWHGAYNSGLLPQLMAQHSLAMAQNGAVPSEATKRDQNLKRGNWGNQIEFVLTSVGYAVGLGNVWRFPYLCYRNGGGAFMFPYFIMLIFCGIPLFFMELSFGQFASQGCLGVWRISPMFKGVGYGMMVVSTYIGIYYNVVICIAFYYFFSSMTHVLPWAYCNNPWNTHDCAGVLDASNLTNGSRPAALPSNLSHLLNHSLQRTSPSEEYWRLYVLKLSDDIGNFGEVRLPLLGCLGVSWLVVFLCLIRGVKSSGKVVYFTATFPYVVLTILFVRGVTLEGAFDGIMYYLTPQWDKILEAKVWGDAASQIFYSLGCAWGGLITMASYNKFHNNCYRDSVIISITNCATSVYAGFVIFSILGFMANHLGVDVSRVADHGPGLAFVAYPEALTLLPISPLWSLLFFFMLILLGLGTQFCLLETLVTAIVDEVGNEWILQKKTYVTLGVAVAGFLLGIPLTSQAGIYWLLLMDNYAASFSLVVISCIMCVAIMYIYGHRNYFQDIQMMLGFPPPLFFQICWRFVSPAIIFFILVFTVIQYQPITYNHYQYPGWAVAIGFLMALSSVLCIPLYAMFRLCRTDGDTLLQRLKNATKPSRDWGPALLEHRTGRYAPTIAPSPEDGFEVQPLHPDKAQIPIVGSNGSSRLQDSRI
Assay: Glycine Transporter 1 (GlyT1) uptake assay, scintillation proximity assay of [14C]-glycine uptake
Type: cell-based
Settings: SPA, four parameter logistic fit, read-out: GlyT1 (pIC50) (converted)
ATTRIBUTE MEASURED: IC50

Request the reported IC50 associated with CS(=O)(=O)c1ccc(N2CCCCC2)c(C(=O)N2Cc3cn(-c4cncc(F)c4)nc3C2)c1 [Example 116] < 100 nM

Form field: reported IC50 of Cc1cc(-n2cc3c(n2)CN(C(=O)c2cc(C#N)ccc2-c2cncc(F)c2)C3)ccn1 [Example 556] < 100 nM

Which measured IC50 value corresponds to CS(=O)(=O)c1ccc(C2CCCC2)c(C(=O)N2CCc3nn(-c4ccccc4)cc3C2)c1 [Example 170] ? < 100 nM

What IC50 value was documented for this compound, COc1c(C#N)ccc(C2(F)CCC(F)(F)CC2)c1C(=O)N1Cc2cn(-c3ccc(F)cn3)nc2C1 [Example 15] ? 100 to 1000 nM

What value of IC50 has been reported for the following compound? C[C@H](Oc1ccc(C#N)c(Cl)c1C(=O)N1CCc2nn(-c3ccc(C(F)(F)F)nc3)cc2C1)C(F)(F)F [Example 239] 1000 to 10000 nM

For CC(C)n1cc2c(n1)CN(C(=O)c1cc(S(C)(=O)=O)ccc1N1CCC(F)(F)CC1)C2 [Example 433] , what is its reported IC50? 100 to 1000 nM

Which IC50 is listed for C[C@H](Oc1ccc(C#N)c(Cl)c1C(=O)N1Cc2cn(-c3cncc(F)c3)nc2C1)C(F)(F)F [Example 252] ? < 100 nM

* * *

Exercise: for every item that follows, state its recorded IC50.
Biological target: GlyT1 (Homo sapiens, UniProt P48067)
Construct: expressed in transfected cells
Sequence (P48067 1-706): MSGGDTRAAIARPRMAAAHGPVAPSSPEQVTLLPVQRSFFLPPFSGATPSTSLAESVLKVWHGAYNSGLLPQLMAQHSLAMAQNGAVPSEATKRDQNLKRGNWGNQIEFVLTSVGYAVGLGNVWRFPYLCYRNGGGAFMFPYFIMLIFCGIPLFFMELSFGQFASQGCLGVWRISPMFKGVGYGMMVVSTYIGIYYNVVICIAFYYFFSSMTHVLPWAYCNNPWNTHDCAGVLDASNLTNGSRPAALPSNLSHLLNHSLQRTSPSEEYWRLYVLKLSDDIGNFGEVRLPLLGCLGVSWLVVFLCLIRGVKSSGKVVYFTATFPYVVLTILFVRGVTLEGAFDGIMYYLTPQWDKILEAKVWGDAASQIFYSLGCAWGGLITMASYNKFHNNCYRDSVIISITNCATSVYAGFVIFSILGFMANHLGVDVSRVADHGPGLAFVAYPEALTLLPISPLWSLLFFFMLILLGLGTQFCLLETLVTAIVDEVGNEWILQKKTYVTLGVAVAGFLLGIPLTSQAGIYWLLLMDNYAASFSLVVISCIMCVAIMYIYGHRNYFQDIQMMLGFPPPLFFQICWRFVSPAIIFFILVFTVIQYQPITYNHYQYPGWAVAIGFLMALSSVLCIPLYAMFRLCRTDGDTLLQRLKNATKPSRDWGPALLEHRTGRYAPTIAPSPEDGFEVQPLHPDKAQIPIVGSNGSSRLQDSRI
Assay: Glycine Transporter 1 (GlyT1) uptake assay, scintillation proximity assay of [14C]-glycine uptake
Type: cell-based
Details: SPA, four parameter logistic fit, read-out: GlyT1 (pIC50) (converted)

Which IC50 value belongs to CC(Oc1ccc(C#N)c(Cl)c1C(=O)N1CCc2nn(-c3ccccc3)cc2C1)C(F)(F)F (stereo not shown) ? 100 to 1000 nM

Value lookup for IC50; key = `CC(C)Oc1ccc(C#N)cc1C(=O)N1Cc2cn(-c3cncc(F)c3)nc2C1` 100 to 1000 nM

What value of IC50 has been recorded for this entry: `COc1c(C#N)ccc(O[C@@H](C)C(F)(F)F)c1C(=O)N1Cc2cn(-c3ncccc3F)nc2C1` < 100 nM

What does the data say about its IC50? Entry: `Cn1ncc2c1CCN(C(=O)c1cc(S(C)(=O)=O)ccc1OCC1CC1)C2` > 10000 nM
